Tested on: OVCAR-5
Assay Method Text: NCI tumour cell line growth inhibition, 48 h
The source made the active and inactive calls. Cut-off read from the data, not from the text of the source: active = GI50 up to about 1.1 µM and inactive = higher.
Measured Parameter: GI50

GI50 lookup needed for O=C1OCC2OC(=O)c3cc(O)c(O)c(O)c3-c3c(O)c(O)c(O)c4c3C(=O)OC(C2OC(=O)c2cc(O)c(O)c(O)c2-c2c1cc(O)c(O)c2O)C1OC(=O)C2C4=C(O)C(=O)C23Oc2cc(O)c4c(c2[C@H]13)O[C@H](c1ccc(O)c(O)c1)[C@@H](O)C4 (some centres not stated) , thanks.
14.6 µM (inactive)

GI50 lookup needed for CCOC(=O)C1=C(C)N(NC(=O)Nc2ccccc2)C2(N)N(NC(=O)Nc3ccccc3)C(C)=C(C(=O)OCC)C12C#N (configuration not stated) , thanks.
17.8 µM (inactive)

GI50 lookup needed for O=C(O)CNC(=O)C(CSC(=O)OCC1c2ccccc2-c2ccccc21)NC(=O)CCC(NC(=O)OCC1c2ccccc2-c2ccccc21)C(=O)O (configuration not stated) , thanks.
> 100 µM (inactive)

GI50 lookup needed for CSC(=NC1=NC(C(F)(F)F)(C(F)(F)F)N=C(c2ccccc2)O1)SC , thanks.
26.4 µM (inactive)

GI50 lookup needed for COC(=O)C1(Cc2ccccc2)Cc2c(C)ccc(C)c2C1=O (configuration not stated) , thanks.
69.5 µM (inactive)

Items follow; give GI50 for each.
1. CO/N=C(/C(=O)OC)c1ccccc1COc1cccc(C(F)(F)F)c1
2. Cc1c(/N=N/c2ccc([N+](=O)[O-])cc2)nc2scc(-c3ccccc3)n12

1. 76.2 µM (inactive)
2. > 66.7 µM (inactive)

----------
System: DMS-114
Assay Method Text: NCI tumour cell line growth inhibition, 48 h
Structures can show the parent of a compound that is named as a salt. Calls of active or inactive are those of the source. No stated cut-off is given here; in the data, active = GI50 up to about 1.1 µM and inactive = higher.
Parameter call: string, one of 1 = active, -1 = inactive

How did this test come out for CCOc1ccc(NC(=O)C(=O)C(C(=O)c2ccc3ccccc3c2)C2OC(=O)c3ccccc32)cc1 (stereo not given) ?
-1

How did this test come out for c1ccc(P(=Nc2ccccc2N=P(c2ccccc2)(c2ccccc2)c2ccccc2)(c2ccccc2)c2ccccc2)cc1 ?
1

How did this test come out for Cc1nc(Nc2ccccc2)sc1C(=O)CC(=O)C(=O)NC12CC3CC(CC(C3)C1)C2 ?
-1

How did this test come out for CN(C)CCCN1c2ccccc2Sc2ccc(C(F)(F)F)cc21 [TRIFLUPROMAZINE HYDROCHLORIDE] ?
-1

Then there is this molecule:
How did this test come out for Cc1cn2cc(-c3ccncc3)nc2s1 ?
-1

----------
Test system: OVCAR-4
Assay Method Text: NCI tumour cell line growth inhibition, 48 h
Activity calls are given as the source filed them. Cut-off read from the data, not from the text of the source: active = GI50 up to about 1.1 µM and inactive = higher.
Parameter call: string, one of label 1 for active, label 0 for inactive

Reference set, count: 6
How did this test come out for Cn1c(=O)c2c(nc3[nH]c(=O)c(Br)cn32)n(C)c1=O ?
label 0

How did this test come out for N=C(N)NS(=O)(=O)c1ccc(NCc2cccc3c(=O)c4ccc(Cl)cc4oc23)cc1 ?
label 0

How did this test come out for CC(=O)c1c(O)nnc(-c2ccc(Cl)cc2)c1-c1ccc(Cl)cc1 ?
label 0

How did this test come out for CCN(CCCl)CCCCCNc1c2ccccc2nc2ccc(OC)cc12 ?
label 1

How did this test come out for CCOc1ccc(NC(=O)C(=O)C(C(=O)c2ccc3ccccc3c2)C2OC(=O)c3ccccc32)cc1 (stereo unspecified) ?
label 0

How did this test come out for CN(C)c1ccc(/C=C(\NC(=O)c2ccccc2)c2nc3cncnc3[nH]2)cc1 ?
label 0

More entries:
How did this test come out for COc1cccc(-c2c(-c3ccccc3)[nH]c(C)c2C(=O)ONC(=O)c2ccccc2)c1 ?
label 0

How did this test come out for C/C(=N\Oc1cc(Cl)ncn1)c1ccccn1 ?
label 0

How did this test come out for Cc1ccc(OCC2OC(n3cnc4nc(Nc5ccc(Cl)c(Cl)c5)nc(Cl)c43)CC2Oc2ccc(C)cc2)cc1 (stereo unspecified) ?
label 0
